Target: canine CD3 on canine T cells (canine PBMC) (canine, UniProt P27597 22-202)
Sequence (P27597 22-202 limits assumed, chain 1 of 3): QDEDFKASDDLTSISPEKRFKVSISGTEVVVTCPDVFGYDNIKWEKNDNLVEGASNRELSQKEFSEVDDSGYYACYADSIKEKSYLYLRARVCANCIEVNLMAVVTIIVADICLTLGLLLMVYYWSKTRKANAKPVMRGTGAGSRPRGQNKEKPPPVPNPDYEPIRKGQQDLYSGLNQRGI
Sequence (chain, as listed by the source limits assumed, chain 2 of 3): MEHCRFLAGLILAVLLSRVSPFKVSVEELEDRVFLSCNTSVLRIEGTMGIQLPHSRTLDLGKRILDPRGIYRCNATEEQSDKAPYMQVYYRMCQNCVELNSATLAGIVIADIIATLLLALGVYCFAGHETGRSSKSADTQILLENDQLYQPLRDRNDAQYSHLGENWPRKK
Sequence (chain, as listed by the source limits assumed, chain 3 of 3): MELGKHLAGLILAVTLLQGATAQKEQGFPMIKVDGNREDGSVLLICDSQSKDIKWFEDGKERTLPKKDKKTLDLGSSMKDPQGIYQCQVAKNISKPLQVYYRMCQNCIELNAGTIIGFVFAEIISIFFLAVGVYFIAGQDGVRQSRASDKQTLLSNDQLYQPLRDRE
Assay: cell-based or functional assay
# Ki67 Proliferation, Day 6, PB per record follows
Please respond with just the number, no unit label.

| binder | Ki67 Proliferation, Day 6, PB |
| --- | --- |
| PMX176 (monospecific anti-canine CD3, canine IgG-B effector function deficient Fc) (antibody, V domains shown) VH: EVQLVESGGDLVKPGGSLRLSCVASGFTFSSYHMSWVRQAPGKGLQWVAYINSAGSTTSYTDAVQGRFTISRDNAKNTLYLQMNSLRAEDTAVYYCASEWIFMPWGQGSLVTVSS VL: SYVLTQLPSKNVTLKQPAHITCGGDNIGSKSVHWYQQKLGQAPVLIIYYDSSRPTGIPERFSGANSGNTATLTISGALAEDEADYYCQVWDSSAKARVFGEGTQLTVL | 1.45 |
| PMX167 (monospecific anti-canine CD3, canine IgG-B effector function deficient Fc) (antibody, V domains shown) VH: EVKLVESGGDLVKPGGSLRLSCMASGFTLNNYYMSWVRQAPGKGLQWVAYIKSGGSDTSYVDAVKGRFTISRDNAKNTLHLQMNSLRVEDTAVYYCATDGYIWAWGQGTLVTVSS VL: SYVLTQLPSKNVTLKQPAHITCGGDNIGSKSVHWYQQKLGQAPVLIIYYDNSRPTGIPERFSGAKSGNTATLTISGALAEDEADYYCQVWDSSSKAYVFGSGTQLTVL | 0 |
| PMX166 (monospecific anti-canine CD3, canine IgG-B effector function deficient Fc) (antibody, V domains shown) VH: ELTLQESGPGLVKPSQTLSLTCVVSGGSVTSSYFWNWIRQRPGRGLEWMGYWTGSTIYSPAFQGRISITPDTAKNQFSLQLSSMTTEDTAVYYCSREGGSTLGAFAYWGQGTLVTVSS VL: SYVLTQLPSKNVTLKQPAHITCGGDNIGSKSVHWYQQKLGQAPVLIIYYDSSRPTGIPERFSGANSGNTATLTISGALAEDEADYYCQVWDSSAKASVFGGGTHLTVL | 0.95 |

So what's the measured Ki67 Proliferation, Day 6, PB for this one? PMX184 (monospecific anti-canine CD3, canine IgG-B effector function deficient Fc) (antibody, V domains shown) VH: ELTLQESGPGLVKPSQTLSLTCGVSGGSVTRSHYWNWVRQRPGRGLEWMGYWTGSTNYNPAFQGRISITADTAKNQFSLQLRSMTTEDTAVYFCARETTIPTFFFDYWGQGTLVTVSS VL: SYVLTQLPSKNVTLKQPAHITCGGDNIGSKSVHWYQQKLGQAPVLIIYYDSSRPTGIPERFSGANSGNTATLTISGALAEDEADYYCQVWDSGAKAWVFGEGTQLTVL
1.47

So what's the measured Ki67 Proliferation, Day 6, PB for this one? PMX195 (monospecific anti-canine CD3, canine IgG-B effector function deficient Fc) (antibody, V domains shown) VH: EVQLVESGGDLVKPAGSLRLSCMASGFTFSSYSMSWVRQAPEKGLQLVAGINGDGSTTYYTDAVKGRFTISRDNAKNTVYLQMNNLRVEDSAMYYCAKGAGTGDYWGQGTLVTVSS VL: SYELTQPPSLNVTLRETAHITCGGDRIGSRYVQWIQQNPGQAPVVVIYKDSNRPTGIPERFSGANSGNTATLTISGALAEDEADYYCQVGDSGNWVFGGGTQLTVL
0.43
